# Experimental Target: UniProt Q13822
Experimental Readout: pIC50
The quantity pIC50 is defined as the negative base-10 logarithm of the molar concentration.

(Q) Form field - read-out: pIC50; system: UniProt Q13822; submitted item: O=C(CSc1nnc(-c2ccco2)o1)N1c2ccccc2Sc2ccc(Cl)cc21
(A) 5.03

Origin of values: ChEMBL document CHEMBL5385934
